TESTED_SYSTEM: substance P receptor (Homo sapiens)
Construct: The receptor was prepared from human lymphoblast cells (IM-9); endogenous in cells
Sequence (P25103 whole entry): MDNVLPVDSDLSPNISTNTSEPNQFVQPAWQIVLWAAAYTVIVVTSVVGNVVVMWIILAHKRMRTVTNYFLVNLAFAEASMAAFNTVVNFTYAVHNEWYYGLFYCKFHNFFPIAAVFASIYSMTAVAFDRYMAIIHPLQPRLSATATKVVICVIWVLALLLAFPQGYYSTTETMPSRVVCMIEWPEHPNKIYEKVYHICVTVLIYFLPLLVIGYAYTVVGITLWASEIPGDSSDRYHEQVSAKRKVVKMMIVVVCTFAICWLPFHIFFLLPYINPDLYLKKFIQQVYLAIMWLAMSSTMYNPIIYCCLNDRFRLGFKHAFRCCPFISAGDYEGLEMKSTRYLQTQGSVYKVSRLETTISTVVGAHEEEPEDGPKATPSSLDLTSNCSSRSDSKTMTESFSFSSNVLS
PROCEDURE_TEXT: Radioligand receptor binding inhibitory activity using receptor from human lymphoblast cells (IM-9), 125I-BHSP
STUDY_CONDITIONS: human IM-9 cell receptor, 25° C., 30 minutes, pH 7.4, n=1
REPORTED_ENDPOINT: IC50 (nM)
Numbers only, in nM.

Examples with answers:
>>> value_measured("CN(Cc1cc(C(F)(F)F)cc(C(F)(F)F)c1)C(=O)c1c(-c2ccc(F)cc2)c2c(c(=O)n1C)CCCN2C")
5
>>> value_measured("CN(Cc1cc(C(F)(F)F)cc(C(F)(F)F)c1)C(=O)c1c(-c2ccc(F)cc2)c2c[n+](C)ccc2c(=O)n1C")
16
>>> value_measured("CN(Cc1cc(C(F)(F)F)cc(C(F)(F)F)c1)C(=O)c1c(-c2ccc(F)cc2)c2nccnc2c(=O)n1C")
0.2

substance P receptor (Homo sapiens) assay, compound CN(Cc1cc(C(F)(F)F)cc(C(F)(F)F)c1)C(=O)c1cnc2ccccc2c1-c1ccccn1 , recorded IC50 = 2.8
